# Target Or System: glucocerebrosidase (Gcase) (Homo sapiens, UniProt P04062)
# Construct: micellar solution containing 10 nM GCase and 100 nM saposin C
# Sequence (P04062 40-536): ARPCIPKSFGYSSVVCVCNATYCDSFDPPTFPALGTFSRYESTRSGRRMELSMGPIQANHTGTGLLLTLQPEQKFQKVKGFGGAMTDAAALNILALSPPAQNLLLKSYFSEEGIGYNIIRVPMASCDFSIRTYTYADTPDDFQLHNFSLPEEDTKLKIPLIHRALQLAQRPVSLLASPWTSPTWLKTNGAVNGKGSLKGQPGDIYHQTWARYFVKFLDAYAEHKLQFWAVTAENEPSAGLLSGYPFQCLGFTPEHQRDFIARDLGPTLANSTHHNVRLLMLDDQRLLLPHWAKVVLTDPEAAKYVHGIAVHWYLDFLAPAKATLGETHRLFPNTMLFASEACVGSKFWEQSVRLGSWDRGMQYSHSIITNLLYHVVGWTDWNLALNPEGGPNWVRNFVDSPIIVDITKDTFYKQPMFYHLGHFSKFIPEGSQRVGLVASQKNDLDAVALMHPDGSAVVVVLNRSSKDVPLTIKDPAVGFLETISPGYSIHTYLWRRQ
# Experiment: Glucocerebrosidase (Gcase) activation assay, 4-methylumbelliferyl-beta-D-glucopyranoside substrate, fluorescence readout
# Assay type: biochemical
# Cond: test compound at 1.0 μM; read-out: Percent Gcase Activation, 1 μM Test Compound
// reported activation at 1 µM for each item listed
Quantity Name: activation at 1 µM

[[record]]
molecule = "Cc1cc(C)n2ccc(C(=O)NC3CCOc4cccc(F)c43)c2n1 (centres unmarked) [III-195]"
value_measured = "> 60%"

[[record]]
molecule = "COC1CCCCC1NC(=O)c1ccn2c(C)cc(C)nc12 (centres unmarked) [III-98]"
value_measured = "< 30%"

[[record]]
molecule = "O=C(N[C@H]1CCCc2ccccc21)c1ccn2c(C3CC3)ccnc12 [III-161]"
value_measured = "30 to 60%"

[[record]]
molecule = "Cc1cc(C)n2ccc(C(=O)Nc3ccc(-c4cocn4)nc3)c2n1 [III-3]"
value_measured = "30 to 60%"

[[record]]
molecule = "[2H]C1(NC(=O)c2ccn3c(C)cc(C)nc23)CCCc2ccccc21 (centres unmarked) [III-131]"
value_measured = "> 60%"

